The measurements presented in this section are drawn from patent US5250543A.

experimental_target: DHP membranous site
experiment: Receptor binding at DHP membranous site with 3H-radiolabelled ligand isradipine
experimental_context: same value used as dose in aorta test, read-out: IC50 at the receptors
Counter-ions that a name gives are not always drawn.
property_measured: IC50 (nM)
Unit nM implied. Number only.

Sample records with IC50:
>  <compound>
COC(=O)C1=C(C)NC(C)=C(C(=O)O[C@H]2CCCN(CCCC(=O)c3c(OC)cc(OC)cc3OC)C2)[C@H]1c1cccc([N+](=O)[O-])c1 [Example 4]

>  <uom>
nM

>  <IC50>
3

$$$$
>  <compound>
COC(=O)C1=C(C)NC(C)=C(C(=O)O[C@@H]2CCCN(CCCC(=O)c3c(OC)cc(OC)cc3OC)C2)[C@H]1c1cccc([N+](=O)[O-])c1 [Example 7]

>  <uom>
nM

>  <IC50>
2

$$$$
>  <compound>
COC(=O)C1=C(C)NC(C)=C(C(=O)OC2CCCN(CCCC(=O)c3c(OC)cc(OC)cc3OC)C2)C1c1cccc([N+](=O)[O-])c1 (centres unmarked)

>  <uom>
nM

>  <IC50>
10

$$$$
>  <compound>
COC(=O)C1=C(C)NC(C)=C(C(=O)O[C@@H]2CCCN(CCCC(=O)c3c(OC)cc(OC)cc3OC)C2)[C@H]1c1cccc([N+](=O)[O-])c1 (single isomer, unassigned) [Example 9, hydrochloride]

>  <uom>
nM

>  <IC50>
0.6

$$$$

Kindly consider the entry below.
Quick check: IC50 on DHP membranous site, item COC(=O)C1=C(C)NC(C)=C(C(=O)O[C@H]2CCCN(CCCC(=O)c3c(OC)cc(OC)cc3OC)C2)[C@H]1c1cccc([N+](=O)[O-])c1 (single isomer, unassigned) [Example 8, hydrochloride] ?
4

---

experiment: Acute toxicity (intraperitoneal) in rats
experimental_context: rat, in vivo, ip, Sprague-Dawley rats, Example 1 given as 20 mg/ml aqueous suspension, nicardipine under the same conditions
Method: The acute toxicity of the compound of example 1 was determined on rats injected intraperitoneally (Sprague-Dawley rats) and the product was administered as a 20 mg/ml aqueous suspension.
Counter-ions that a name gives are not always drawn.
property_measured: LD50 (mg/kg)
Number in mg/kg, nothing else.

>  <molecule>
COC(=O)C1=C(C)NC(C)=C(C(=O)OC2CCCN(CCCC(=O)c3c(OC)cc(OC)cc3OC)C2)C1c1cccc([N+](=O)[O-])c1 (centres unmarked) [Example 1, hydrochloride]

>  <value_measured>
249

$$$$

We now examine a further molecule.
I have this molecule here, COC(=O)C1=C(C)NC(C)=C(C(=O)OCCN(C)Cc2ccccc2)C1c1cccc([N+](=O)[O-])c1 (centres unmarked) [nicardipine, reference compound] , and I need its recorded LD50.
233

---

experiment: Solubility in water (noted in preparation)
Assay type: physicochemical
experimental_context: isolated powder, in words
Structures can show the parent of a compound that is named as a salt.

>  <molecule>
COC(=O)C1=C(C)NC(C)=C(C(=O)O[C@@H]2CCCN(CCCC(=O)c3c(OC)cc(OC)cc3OC)C2)[C@H]1c1cccc([N+](=O)[O-])c1 (single isomer, unassigned) [Example 9, hydrochloride]

>  <Solubility in water>
water-insoluble

$$$$
>  <molecule>
COC(=O)C1=C(C)NC(C)=C(C(=O)OC2CCCN(CCCC(=O)c3c(OC)cc(OC)cc3OC)C2)C1c1cccc([N+](=O)[O-])c1 (centres unmarked) [Example 12]

>  <Solubility in water>
water-insoluble

$$$$
>  <molecule>
COC(=O)C1=C(C)NC(C)=C(C(=O)O[C@H]2CCCN(CCCC(=O)c3c(OC)cc(OC)cc3OC)C2)[C@H]1c1cccc([N+](=O)[O-])c1 (single isomer, unassigned) [Example 8, hydrochloride]

>  <Solubility in water>
water-insoluble

$$$$
